Assay target: T1, mouse PAI-1 (mouse, UniProt P22777 24-401)
T1 sequence: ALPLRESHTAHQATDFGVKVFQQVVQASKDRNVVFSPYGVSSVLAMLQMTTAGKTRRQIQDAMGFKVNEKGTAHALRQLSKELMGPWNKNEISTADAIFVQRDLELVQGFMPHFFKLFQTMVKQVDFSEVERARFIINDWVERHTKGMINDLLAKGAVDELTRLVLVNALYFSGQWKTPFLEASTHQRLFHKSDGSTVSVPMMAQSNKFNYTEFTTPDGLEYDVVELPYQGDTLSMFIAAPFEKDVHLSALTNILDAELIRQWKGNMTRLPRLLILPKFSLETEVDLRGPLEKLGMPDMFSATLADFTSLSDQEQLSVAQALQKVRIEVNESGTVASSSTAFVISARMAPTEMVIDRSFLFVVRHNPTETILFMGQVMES
Experiment notes: cell-based or functional assay
Readout type: log10(IC50 chromogenic) (log10 of the value in µM)

1) Antibody 10, scFv (scFv, V domains shown) VH: QVQLQQSGAEVKKPGSSVKVSCKASGGTFSSYAISWVRQAPGQGLEWMGGIIPTFGTANYAQKFQGRVTITADESTSTAYMELSSLRSEDTAVYYCAREKRQWLEGHFDYWGRGTPVTVSS VL: DIQMTQSPSFLSASIGDRVAITCRASEGIYHSLAWYQQKPGKAPKLLIYRASSLASGAPSRFSGSGSGTDFTLTISSLQPDDFATYYCQQYSNYPLTFGGGTRLEIK	-0.48
2) Antibody 21, scFv (scFv, V domains shown) VH: PVQLQQSGAEVKKPGSSVKVSCKASGGTFSSYAISWVRQAPGQGLEWMGGIIPTFGTANYAQKFQGRVTITADESTSTAYMELSGLRSEDTAVYYCAREKRQWLEGHFDYWGRGTPVTVSS VL: DIQMAQSPSFLSASIGDRVTITCRASEGIYHNLAWYQQKPGKAPKLLIYRASSLASGAPSRFSGSGSGTDFTLTISSLQPDDFATYYCQQYSNYPLTFGGGTKLEIK	-1.49
3) Antibody 27, IgG1, not germlined (antibody, V domains shown, whole IgG1; also called Ab 27) VH: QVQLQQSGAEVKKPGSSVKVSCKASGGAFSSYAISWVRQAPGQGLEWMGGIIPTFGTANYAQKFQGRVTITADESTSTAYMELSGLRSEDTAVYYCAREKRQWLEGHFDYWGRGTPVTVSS VL: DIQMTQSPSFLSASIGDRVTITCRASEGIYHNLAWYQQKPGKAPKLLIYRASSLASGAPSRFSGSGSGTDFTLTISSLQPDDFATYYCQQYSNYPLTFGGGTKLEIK	-1.79
4) Antibody 18, scFv (scFv, V domains shown) VH: QVQLQQSGAEVKKPGSSVKVSCKASGGTFSSYAISWVRQAPGQGLEWMGGIIPTFGTANYAQKLQGRVTITADESTSTAYMELSGLRSEDTAVYYCAREKRQWLEGHFDYWGRGTPVTVSS VL: DIQMTQSPSFLSASIGDRVTITCRASEGIYHALAWYQQKPGKAPKLLIYRASSLASGAPSRFSGSGSGTDFTLTISSLQPDDFATYYCQQYSNYPLTFGGGTKLEIK	-0.50
5) Antibody 07, scFv (scFv, V domains shown) VH: QVQLQQSGAEVKKPGSSVKVSCKASGGTFSSYAISWVRQAPGQGLEWVGGIIPTFGTANYAQKFQGRVTITADESTSTAYMELSGLRSEDTAVYYCAREKRQWLEGHFDYWGRGTPVTVSS VL: DIQMAQSPSFLSASIGDRVTITCRASEGIYHELAWYQQKPGKAPKLLIYRASSLASGAPSRFSGSGSGTDFTLTISSLQPDDFATYYCQQYSNYPLTFGGGTKLEIK	-0.84
6) Antibody 02, scFv (scFv, V domains shown) VH: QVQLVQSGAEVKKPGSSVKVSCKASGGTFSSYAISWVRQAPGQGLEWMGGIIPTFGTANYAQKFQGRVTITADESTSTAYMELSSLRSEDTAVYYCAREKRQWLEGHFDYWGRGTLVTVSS VL: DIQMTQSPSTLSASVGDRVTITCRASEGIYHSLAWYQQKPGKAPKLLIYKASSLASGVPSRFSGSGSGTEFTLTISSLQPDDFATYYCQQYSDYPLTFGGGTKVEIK	-0.26
7) Antibody 25, scFv (scFv, V domains shown) VH: QVQLQQSGAEVKKPGSSVKVSCKASGGTFSSYAISWVRQAPGQGLEWMGGIIPTFGTANYAQKFQGRVTITADESTSTAYMELSGLRSEDTAVYYCARERRQWLEGHFDYWGQGTPVTVSS VL: DIQMTQSPSFLSASIGDRVTITCRASESIYHELAWYQQKPGKAPKLLIYKASSLASGAPSRFSGSGSGTAFTLTISSLQPDDFATYYCQQYSNYPLTFGGGTKLEIK	-0.76
8) Antibody 03, scFv (scFv, V domains shown) VH: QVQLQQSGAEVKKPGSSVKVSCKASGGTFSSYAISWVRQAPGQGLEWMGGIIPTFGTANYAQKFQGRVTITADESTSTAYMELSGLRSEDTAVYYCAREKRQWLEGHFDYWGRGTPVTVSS VL: DIQMTQSPSFLSASIGDRVTITCRASEGIYRSLAWYQQKPGKAPKLLIYKASSLASGAPSRFSGSGSGTDFTLTISGLQPDDFATYYCQQYSNYPLTFGGGTKLEIK	-1.26
9) Antibody 13, scFv (scFv, V domains shown) VH: QVQLQQSGAEVKKPGSSVKVSCKASGGTFSSYAISWVRQAPGQGLEWMGGIIPTFGTANYAQKFQGRVTITADESTSTAYMELSDLRSEDTAVYYCAREKRQWLEGHFDYWGRGTPVTVSS VL: DIQMTQSPSFLSASIGDRVTITCRASEGIYHSLAWYQQKPGKAPKLLIYRASSLASGAPSRFSGSGSGTDFTLTISSLQPDDFATYYCQQYSNYPLTFGGGTKLEIK	-0.61
10) Antibody 23, scFv (scFv, V domains shown) VH: QVQLQQSGAEVKKPGSSVKVSCKASGGTFSSYAISWVRQAPGQGLEWMGGIIPTFGTANYAQKFQSRVTITADESTSTAYMELSGLRSEDTAVYYCAREKRQWLEGHFDYWGRGTPVTVSS VL: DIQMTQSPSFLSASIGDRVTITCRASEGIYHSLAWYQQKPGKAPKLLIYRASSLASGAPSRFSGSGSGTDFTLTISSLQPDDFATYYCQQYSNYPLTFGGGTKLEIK	-0.42

Taken from patent US20120114652A1.
